- Tested on: A375
- EXPERIMENTAL_DETAILS: MTT cytotoxicity assay, melanoma cell line A375
- Assay type: cell-based
- TEST_SETTINGS: Homo sapiens, A-375, 24 h, read-out: IC50 A375
A collection of compounds and their measured pIC50
pIC50 (log units): -log10 of the concentration in mol/L.

Param item: Cn1c(=O)c2c(nc(OCc3cn(C(c4ccccc4)c4ccccc4)nn3)n2C)n(C)c1=O [Compound 22e] ; param system: A375; output pIC50: 3.54

Param item: Cc1ccc(Cn2cc(COc3nc4c(c(=O)n(C)c(=O)n4C)n3C)nn2)cc1 [Compound 22d] ; param system: A375; output pIC50: 3.71

Param item: CCCCCCCCn1cc(COc2nc3c(c(=O)n(C)c(=O)n3C)n2C)nn1 [Compound 22i] ; param system: A375; output pIC50: 3.84

Param item: CN(Cc1cnc2nc(N)nc(N)c2n1)c1ccc(C(=O)N[C@@H](CCC(=O)O)C(=O)O)cc1 [MTX, Methotrexate, reference compound] ; param system: A375; output pIC50: 4.49

Param item: CCCCCn1cc(COc2nc3c(c(=O)n(C)c(=O)n3C)n2C)nn1 [Compound 22f] ; param system: A375; output pIC50: 3.80

Param item: Cn1c(=O)c2c(nc(OCc3cn(CCCc4ccccc4)nn3)n2C)n(C)c1=O [Compound 22a] ; param system: A375; output pIC50: 3.75

----------
A collection of molecules and their measured pIC50
- Test system: MCF7
- EXPERIMENTAL_DETAILS: MTT cytotoxicity assay, breast cancer cell line MCF7
- Assay type: cell-based
- TEST_SETTINGS: Homo sapiens, MCF7, 24 h, read-out: IC50 MCF7
pIC50: −log10 of the molar value.

# MOLECULE, pIC50
rows = [
    ("Cn1c(=O)c2c(nc(OCc3cn(Cc4ccccc4)nn3)n2C)n(C)c1=O [Compound 22c]", "< 3.52"),
    ("Cn1c(=O)c2c(nc(OCc3cn(CCc4ccccc4)nn3)n2C)n(C)c1=O [Compound 22b]", "< 3.52"),
    ("CCCCCCCCCCn1cc(COc2nc3c(c(=O)n(C)c(=O)n3C)n2C)nn1 [Compound 22j]", "< 3.52"),
    ("Cc1ccc(Cn2cc(COc3nc4c(c(=O)n(C)c(=O)n4C)n3C)nn2)cc1 [Compound 22d]", "< 3.52"),
    ("CCCCCCCn1cc(COc2nc3c(c(=O)n(C)c(=O)n3C)n2C)nn1 [Compound 22h]", "< 3.52"),
]

Value of measured pIC50 for the entry CCCCCCn1cc(COc2nc3c(c(=O)n(C)c(=O)n3C)n2C)nn1 [Compound 22g] : < 3.52

----------
- System: A375
- EXPERIMENTAL_DETAILS: MTT cytotoxicity assay, melanoma cell line A375
- Format: cell-based
- TEST_SETTINGS: Homo sapiens, A-375, 24 h, read-out: IC50 A375
pIC50: −log10 of the molar value.
A collection of compounds and their measured pIC50

# COMPOUND, SYSTEM, pIC50
data = [
    ("CCCCCCn1cc(COc2nc3c(c(=O)n(C)c(=O)n3C)n2C)nn1 [Compound 22g]", "A375", "< 3.52"),
    ("CCCCCCCCCCn1cc(COc2nc3c(c(=O)n(C)c(=O)n3C)n2C)nn1 [Compound 22j]", "A375", "< 3.52"),
    ("CCCCCCCn1cc(COc2nc3c(c(=O)n(C)c(=O)n3C)n2C)nn1 [Compound 22h]", "A375", "< 3.52"),
    ("Cn1c(=O)c2c(nc(OCc3cn(Cc4ccccc4)nn3)n2C)n(C)c1=O [Compound 22c]", "A375", "> 4.90"),
]

Param item: Cn1c(=O)c2c(nc(OCc3cn(CCc4ccccc4)nn3)n2C)n(C)c1=O [Compound 22b] ; param system: A375; output pIC50: < 3.52
